Reported surface tension liquid-gas values for a set of compounds
conditions: 288.15 K
The response must be a number in mN/m with no trailing unit.

Below, each entry is followed by its recorded surface tension liquid-gas result.
>  <compound>
CCCCC(O)CO (centres undefined) [1,2-hexanediol]

>  <unit name>
mN/m

>  <surface tension liquid-gas>
24.4

$$$$
>  <compound>
CC(O)CCCCO (centres undefined) [1,5-hexanediol]

>  <unit name>
mN/m

>  <surface tension liquid-gas>
34.3

$$$$
>  <compound>
O [water]

>  <unit name>
mN/m

>  <surface tension liquid-gas>
73.4

$$$$

Exercise: # get_value(readout='surface tension liquid-gas', item= CC(O)CCC(C)O (centres undefined) [2,5-hexanediol] )
Solution: 32

---

settings: 293.15 K
± gives the expanded uncertainty stated by the source.
experimental readout: surface tension liquid-gas
I'd appreciate it if you included the unit after the number.

Below, each entry is followed by its recorded surface tension liquid-gas result.
>  <compound>
CC(O)CCCCO (centres undefined) [1,5-hexanediol]

>  <experimental readout>
surface tension liquid-gas

>  <readout value>
34.1 ± 0.8 mN/m

$$$$
>  <compound>
CCCCC(O)CO (centres undefined) [1,2-hexanediol]

>  <experimental readout>
surface tension liquid-gas

>  <readout value>
24.1 ± 0.8 mN/m

$$$$
>  <compound>
O [water]

>  <experimental readout>
surface tension liquid-gas

>  <readout value>
72.6 ± 1.1 mN/m

$$$$

In the following, a different compound is considered.
Exercise: # get_value(readout='surface tension liquid-gas', item= CC(O)CCC(C)O (centres undefined) [2,5-hexanediol] )
Solution: 31.9 ± 0.8 mN/m

---

settings: 303.15 K
Reported surface tension liquid-gas values for a set of molecules
The response must be a number in mN/m with no trailing unit.

Below, each entry is followed by its recorded surface tension liquid-gas result.
>  <molecule>
O

>  <unit name>
mN/m

>  <readout value>
71

$$$$
>  <molecule>
CC(O)CCCCO (centres undefined)

>  <unit name>
mN/m

>  <readout value>
33.7

$$$$
>  <molecule>
CC(O)CCC(C)O (centres undefined)

>  <unit name>
mN/m

>  <readout value>
31.3

$$$$

In the following, a different molecule is considered.
Exercise: # get_value(readout='surface tension liquid-gas', item= CCCCC(O)CO (centres undefined) )
Solution: 23.6

---

conditions: 308.15 K
± gives the expanded uncertainty stated by the source.
Reported surface tension liquid-gas values for a set of compounds
I'd appreciate it if you included the unit after the number.

Below, each entry is followed by its recorded surface tension liquid-gas result.
>  <compound>
CCCCC(O)CO (centres undefined)

>  <experimental readout>
surface tension liquid-gas

>  <readout value>
23.3 ± 0.8 mN/m

$$$$
>  <compound>
CC(O)CCCCO (centres undefined)

>  <experimental readout>
surface tension liquid-gas

>  <readout value>
33.5 ± 0.8 mN/m

$$$$
>  <compound>
CC(O)CCC(C)O (centres undefined)

>  <experimental readout>
surface tension liquid-gas

>  <readout value>
31 ± 0.8 mN/m

$$$$

In the following, a different compound is considered.
Exercise: # get_value(readout='surface tension liquid-gas', item= O )
Solution: 70.2 ± 1.1 mN/m

---

details: 298.15 K
experimental readout: surface tension liquid-gas (mN/m)
The response must be a number in mN/m with no trailing unit.

Below, each entry is followed by its recorded surface tension liquid-gas result.
>  <compound>
CCCCC(O)CO (centres undefined)

>  <surface tension liquid-gas (mN/m)>
23.8

$$$$
>  <compound>
O

>  <surface tension liquid-gas (mN/m)>
71.8

$$$$
>  <compound>
CC(O)CCC(C)O (centres undefined)

>  <surface tension liquid-gas (mN/m)>
31.6

$$$$

In the following, a different compound is considered.
Exercise: # get_value(readout='surface tension liquid-gas', item= CC(O)CCCCO (centres undefined) )
Solution: 33.9

---

details: 283.15 K
Reported surface tension liquid-gas values for a set of compounds
The response must be a number in mN/m with no trailing unit.

>  <compound>
CC(O)CCCCO (centres undefined) [1,5-hexanediol]

>  <unit name>
mN/m

>  <readout value>
34.6

$$$$

Exercise: # get_value(readout='surface tension liquid-gas', item= O [water] )
Solution: 74.1

Exercise: # get_value(readout='surface tension liquid-gas', item= CCCCC(O)CO (centres undefined) [1,2-hexanediol] )
Solution: 24.7

Exercise: # get_value(readout='surface tension liquid-gas', item= CC(O)CCC(C)O (centres undefined) [2,5-hexanediol] )
Solution: 32.3

Attribution: the NIST ThermoML archive (doi:10.1016/j.fluid.2007.05.029)
